Answer each item with its documented protein stability index.
assay: protein stability index of a GFP-peptide fusion (GPS, HEK-293T) (PSI 1-6); higher = more stable; settings: treatment: MLN4924 1 uM, 8 h; c terminus: a fixed tail appended;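 note: 24-mer peptide tiles fused after GFP, lentivirally expressed, FACS-sorted into six equal bins by GFP/DsRed ratio, decoded by Illumina sequencing, PSI is the read-weighted mean bin number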
Numbers only.

Please report the recorded protein stability index for ASLPSQKYPGPQAEGDSEGLSQGL [CHGA] .
5.25

Please report the recorded protein stability index for PLLSGVAQEVSPCGPPSLGAVLAL [MFSD9] .
2.42

Please report the recorded protein stability index for LQGAASHVPEGFDPTGPAGLGRPT [EHMT1] .
4.58

Hi! Can you tell me protein stability index for each of these sequences?
1. VASRNLFPKDTLMNLHVYISEHEH [CLPTM1]
2. RDPLQTDTLQNDYFAIKQEVVTPD [ETS1]
3. GHSSSVEMFLYFEDHGLVTCSADH [WDR41]

1: 2.37; 2: 4.9; 3: 2.25

Hi! Can you tell me protein stability index for each of these sequences?
1. ECGKTFIYNSHLVVHQRVHSGEKP [ZNF232]
2. EAKALLKERQKKDNHNLIERRRRF [TFE3]
3. KGKLFTWNILKTIALGQMLSLCIC [SLC35F2]
4. SGPARVIAIVSVMVILISIVIFCL [KCNA1]
5. LVQVTLLDTVELATYCVRTFALYK [PTPRD]
6. APKDSAPQDLAPQVSAHHRSQESL [TBC1D10A]

[2.9, 4.38, 2.57, 2.22, 2.97, 5.38]

Please report the recorded protein stability index for MDTQFTIRARELQNIYKCIMLKNI [IQUB] .
2.37
